B1: glmS ribozyme (parent)
chain: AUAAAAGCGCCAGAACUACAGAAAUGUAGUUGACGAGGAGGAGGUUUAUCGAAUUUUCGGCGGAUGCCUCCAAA

variants of: B1; assay: self-cleavage kobs at 40 uM GlcN6P; higher = faster cleavage; RNA array; details: with glucosamine-6-phosphate
Fewer inactive variants are shown than the library holds.
Consider the following variants and their measured self-cleavage kobs at 40 uM GlcN6P readings.
PROPERTY LABEL: self-cleavage kobs at 40 uM GlcN6P (s⁻¹)

- MUT: "U46G G59U"
  UNIT STRING: "s⁻¹"
  MODIFIER SIGN: "<"
  QUANTITATIVE RESULT: "1e-05"
- MUT: "G21A"
  UNIT STRING: "s⁻¹"
  MODIFIER SIGN: "="
  QUANTITATIVE RESULT: 0.00134
- MUT: "A6U C16A C34A G38C"
  UNIT STRING: "s⁻¹"
  MODIFIER SIGN: "<"
  QUANTITATIVE RESULT: "1e-05"
- MUT: "A42C U47G"
  UNIT STRING: "s⁻¹"
  MODIFIER SIGN: "<"
  QUANTITATIVE RESULT: "1e-05"
- MUT: "G9A C11G A53G"
  UNIT STRING: "s⁻¹"
  MODIFIER SIGN: "<"
  QUANTITATIVE RESULT: "1e-05"
- MUT: "C50G A53U G63U U69A"
  UNIT STRING: "s⁻¹"
  MODIFIER SIGN: "="
  QUANTITATIVE RESULT: 0.00027
- MUT: "A39U A42G"
  UNIT STRING: "s⁻¹"
  MODIFIER SIGN: "="
  QUANTITATIVE RESULT: 0.000671
- MUT: "G9C C61G"
  UNIT STRING: "s⁻¹"
  MODIFIER SIGN: "="
  QUANTITATIVE RESULT: "9.12e-05"
- MUT: "C10G C16G C34U G43C A52C U55C"
  UNIT STRING: "s⁻¹"
  MODIFIER SIGN: "<"
  QUANTITATIVE RESULT: "1e-05"
- MUT: "U31A"
  UNIT STRING: "s⁻¹"
  MODIFIER SIGN: "="
  QUANTITATIVE RESULT: 0.000428
- MUT: "A14C U31C"
  UNIT STRING: "s⁻¹"
  MODIFIER SIGN: "="
  QUANTITATIVE RESULT: "8.42e-05"
- MUT: "G37U A48U C68A"
  UNIT STRING: "s⁻¹"
  MODIFIER SIGN: "<"
  QUANTITATIVE RESULT: "1e-05"
- MUT: "C50G G59C C67G"
  UNIT STRING: "s⁻¹"
  MODIFIER SIGN: "="
  QUANTITATIVE RESULT: 0.00018
- MUT: "C50U G63A"
  UNIT STRING: "s⁻¹"
  MODIFIER SIGN: "<"
  QUANTITATIVE RESULT: "1e-05"
- MUT: "C10A C11G"
  UNIT STRING: "s⁻¹"
  MODIFIER SIGN: "<"
  QUANTITATIVE RESULT: "1e-05"
- MUT: "U31C U57G"
  UNIT STRING: "s⁻¹"
  MODIFIER SIGN: "<"
  QUANTITATIVE RESULT: "1e-05"
- MUT: "U56G G63U"
  UNIT STRING: "s⁻¹"
  MODIFIER SIGN: "<"
  QUANTITATIVE RESULT: "1e-05"
- MUT: "A12U U31G"
  UNIT STRING: "s⁻¹"
  MODIFIER SIGN: "="
  QUANTITATIVE RESULT: 0.000567
- MUT: "A12U U31A"
  UNIT STRING: "s⁻¹"
  MODIFIER SIGN: "="
  QUANTITATIVE RESULT: 0.000416
- MUT: "G7C G35U U54G"
  UNIT STRING: "s⁻¹"
  MODIFIER SIGN: "<"
  QUANTITATIVE RESULT: "1e-05"
- MUT: "G7U G37A"
  UNIT STRING: "s⁻¹"
  MODIFIER SIGN: "<"
  QUANTITATIVE RESULT: "1e-05"
- MUT: "A36G G63A"
  UNIT STRING: "s⁻¹"
  MODIFIER SIGN: "<"
  QUANTITATIVE RESULT: "1e-05"
